B1: minF1; the commonest letter at each place (parent)
chain: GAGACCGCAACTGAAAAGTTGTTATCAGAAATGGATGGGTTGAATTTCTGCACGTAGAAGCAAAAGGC

Variants of: B1
Assay: fraction ligated after 30 min (ligated reads / total reads); higher = more ligase activity
Details: with F1*subA RNA substrate (template-directed ligation), 42 °C
observation_type: fraction ligated
Give bare numbers.

Guide cases for fraction ligated, answers given:
| item_sequence | fraction ligated |
| --- | --- |
| GAGACCGCAACTGAAAAGTTGTTATCAGAAATGGCCGGGTTGAATTTCTGCACGTAGAAGCAAAAGGC [A35C T36C] | 0.00473 |
| GAGACCGCAACTGAAAAGTTGTTATCAGAAATGGATGGGTTTAATTTCTGCACGTAGAAGCAAAAGGC [G42T] | 0.117 |
| GAGACCGCAACTGAAAAGTTGTCATCAGATATGGATGGGTTGAATTTCTGCACGTAGAAGCAAAAGGC [T23C A30T] | 0.221 |
| GAGACCGCAACTGAAAAGTTGTTATCAGAAATGGATGGGTTCGCTTTCTGCACGTAGAAGCAAAAGGC [G42C A43G A44C] | 0.000834 |
| GAGACCGCAACTGAAAAGTTGTGATCAGAAATGGAGGGGTTGAATTTCTGCACGTAGAAGCAAAAGGC [T23G T36G] | 0.061 |
| GAGACCGCAACTGAAAAGTTGTGATCGGAAATGGATGGGTTGAATTTCTGCACGTAGAAGCAAAAGGC [T23G A27G] | 0.795 |
| GAGACCGCAACTGAAAAGTTGTTATTACAAATGGATGGGTTGAATTTCTGCACGTAGAAGCAAAAGGC [C26T G28C] | 0.61 |
| GAGACCGCAACTGAAAAGTTGTTATCAGAAATCGATGGGTTAAATTTCTGCACGTAGAAGCAAAAGGC [G33C G42A] | 0.132 |

Batch lookup, fraction ligated per entry.
1. GAGACCGCAACTGAAAAGTTGTTATCAGAAATGGATGGGTTAGCTTTCTGCACGTAGAAGCAAAAGGC [G42A A43G A44C]
2. GAGACCGCAACTGAAAAGTTGTTATTATAAATGGATGGGTTGAATTTCTGCACGTAGAAGCAAAAGGC [C26T G28T]
3. GAGACCGCAACTGAAAAGTTGTTCTCAGAAATGGATGGGTTTAATTTCTGCACGTAGAAGCAAAAGGC [A24C G42T]
4. GAGACCGCAACTGAAAAGTTGTTATCAAAAATGGATCGGTTGAATTTCTGCACGTAGAAGCAAAAGGC [G28A G37C]
5. GAGACCGCAACTGAAAAGTTGTTATCAGAAATGGATAGGTTAAATTTCTGCACGTAGAAGCAAAAGGC [G37A G42A]
6. GAGACCGCAACTGAAAAGTTGTGATCAGGAATGGATGGGTTGAATTTCTGCACGTAGAAGCAAAAGGC [T23G A29G]
7. GAGACCGCAACTGAAAAGTTGTTAACAGAAATGTATGGGTTGAATTTCTGCACGTAGAAGCAAAAGGC [T25A G34T]

Response:
0.00251
0.55
0.00251
0.00899
0.00332
0.813
0.00319

Batch lookup, fraction ligated per entry.
1. GAGACCGCAACTGAAAAGTTGTTATCAGTAATGGATGGGTTGAATTTCTGCACGTAGAAGCAAAAGGC [A29T]
2. GAGACCGCAACTGAAAAGTTGTTATCAGGAATGGCTGGGTTGAATTTCTGCACGTAGAAGCAAAAGGC [A29G A35C]

Response:
1. 0.815
2. 0.0139

Batch lookup, fraction ligated per entry.
1. GAGACCGCAACTGAAAAGTTGTTATCAGAAATGGATGGGTTAAATTTCTGCACGTAGAAGCAAAAGGC [G42A]
2. GAGACCGCAACTGAAAAGTTGTTATCAGAAATGGATGGGTGGAATTTCTGCACGTAGAAGCAAAAGGC [T41G]
3. GAGACCGCAACTGAAAAGTTGTTATCACAAATGGATGGGTTGTATTTCTGCACGTAGAAGCAAAAGGC [G28C A43T]
4. GAGACCGCAACTGAAAAGTTGTTGTCAAAAATGGATGGGTTGAATTTCTGCACGTAGAAGCAAAAGGC [A24G G28A]
5. GAGACCGCAACTGAAAAGTTGTTATCAGAAATGGATGGGTTCCCTTTCTGCACGTAGAAGCAAAAGGC [G42C A43C A44C]

Response:
[0.364, 0.146, 0.0901, 0.043, 0.00224]
